- target_or_system: SALL4 ZFC4 R900W (HT-SELEX) (Mus musculus, UniProt Q8BX22 870-940, R900W)
- Sequence: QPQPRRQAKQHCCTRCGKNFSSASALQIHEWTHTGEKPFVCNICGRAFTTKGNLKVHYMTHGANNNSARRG
- assay_details: HT-SELEX; high values mean tight binding
- settings: protein: recombinant; vector His6-GST; dsDNA, one strand shown
assay_endpoint: binding signal (fold-change vs cycle 0)
Please state the figure in fold-change vs cycle 0; there is no need to write the unit.

CTGGTC    0.499
GTCGTA    0.663
GCATCA    0.724
TACAGA    1.38
TAATTA    2.77

Let's switch to this sequence now.
Exercise: So what binding signal did GGCGAA get with SALL4 ZFC4 R900W (HT-SELEX) (Mus musculus, UniProt Q8BX22 870-940, R900W)?
Key: 0.216
